target_of_assay: Human Cat-L (Homo sapiens)
Sequence (P07711 114-333): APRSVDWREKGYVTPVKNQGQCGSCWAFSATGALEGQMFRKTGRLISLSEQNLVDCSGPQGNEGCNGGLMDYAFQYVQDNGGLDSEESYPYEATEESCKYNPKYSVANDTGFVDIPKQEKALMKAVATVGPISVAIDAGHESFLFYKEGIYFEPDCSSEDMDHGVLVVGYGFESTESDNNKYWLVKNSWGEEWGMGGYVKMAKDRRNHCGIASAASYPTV
assay_method_text: Enzymatic isoform-selectivity assay, Cat-L
property_measured: IC50

Request body: readout IC50, system Human Cat-L (Homo sapiens), query "Cn1cc(-c2ccc(S(=O)(=O)[C@@H]3C[C@@H](C(=O)NC4(C#N)CC4)N(C(=O)C4(C(F)(F)F)CC4)C3)c(C(F)(F)F)c2)cn1" . Return the value.
> 1000 nM

====

target_of_assay: Human Cat-S (Homo sapiens, UniProt P25774)
Sequence (P25774 115-331): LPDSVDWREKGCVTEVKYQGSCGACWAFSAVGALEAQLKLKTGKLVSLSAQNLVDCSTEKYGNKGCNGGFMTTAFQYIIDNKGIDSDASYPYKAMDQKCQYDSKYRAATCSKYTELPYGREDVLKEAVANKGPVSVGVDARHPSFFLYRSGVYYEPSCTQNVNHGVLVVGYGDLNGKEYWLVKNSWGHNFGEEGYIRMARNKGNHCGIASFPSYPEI
assay_method_text: Enzymatic isoform-selectivity assay, human Cat-S
measurement_context: read-out: apparent IC50, human Cat-S
property_measured: pIC50
FYI, pIC50 means -log10 of a concentration in mol per litre.

Request body: readout pIC50, system Human Cat-S (Homo sapiens, UniProt P25774), query Cn1cc(-c2ccc(S(=O)(=O)[C@@H]3C[C@@H](C(=O)NC4(C#N)CC4)N(C(=O)C4(C(F)(F)F)CC4)C3)c(C(F)(F)F)c2)cn1 [RO5459072] . Return the value.
10.00

// provenance: paper PMC5459853
